- run.description: gradient 5% acetonitrile 3 min, to 50% in 2 min, to 85% in 15 min, held 3 min, 100 µL/min
- reported.conditions: column: Zorbax Extend-C18 2.1 x 50 mm; eluents: water / acetonitrile, 0.1% formic acid
Binary call on RP-LC retention time with cut-off 700 s: strictly below means MET, and equality or higher means NOT MET.

CNC(=O)C1CCCN(S(=O)(=O)c2ccc(OC)c(OC)c2)C1 (stereo not given) :: MET
CCCN(Cc1cccs1)C(=O)C1CCc2nc(N3CCC(C)CC3)ncc2C1 (stereo not given) :: NOT MET

Ask | RP-LC retention time under 700 s? Item: CCc1ccccc1NC(=O)c1cc(CC)n2nccc2n1
Reply | NOT MET

Ask | Field: below-cutoff. Rule: recorded RP-LC retention time strictly less than 700 s. Subject: O=C(NCc1cccnc1)c1cc(N2CCCC2)n2nccc2n1
Reply | MET

Ask | RP-LC retention time under 700 s? Item: Cc1ccc(NC(=O)N2CCC(n3cnnc3C3CC3)C2)cc1Cl (stereo not given)
Reply | MET

Ask | Find out if reported RP-LC retention time for Cn1cnc(S(=O)(=O)N2CCC(Cc3nncn3Cc3ccccc3)C2)c1 (stereo not given) is less than 700 s
Reply | MET

Ask | Decide: RP-LC retention time of CCN1C(=O)c2ccccc2Oc2ccc(C(=O)NCc3ccc(C)o3)cc21 strictly below 700 s?
Reply | NOT MET

Ask | Record CCOC(=O)c1c(C)[nH]c(C(=O)N2CCCC(C(=O)NCCN3CCCCCC3)C2)c1C (stereo not given) : is its RP-LC retention time strictly below 700 s?
Reply | MET

Ask | API: query returns whether the compound falls strictly under 700 s in RP-LC retention time. Query: COc1ccc(OC)c2sc(NCc3ccccn3)nc12
Reply | MET
